Numbers sourced from patent US20080019913A1.

For each record, write down the corresponding Ki.
# target entity: T1, human κ-opioid receptor (human, UniProt P41145 1-380)
# T1 construct: whole, on cells; Assayed as membranes of CHO cells expressing the receptor; also called KOR
# experiment description: radioligand competition against [3H]U69,593, CHO cell membranes expressing human KOR
Non-standard residues stand in square brackets, D forms with d. No end group written: not given here. *: point of attachment. β‑lactoside = OC[C@H]1O[C@@H](O[C@H]2[C@H](O)[C@@H](O)[C@H](*)O[C@@H]2CO)[C@H](O)[C@@H](O)[C@H]1O; βGlc = OC[C@H]1O[C@@H](*)[C@H](O)[C@@H](O)[C@@H]1O; β‑D‑xyloside = O[C@@H]1[C@@H](O)[C@H](*)OC[C@H]1O; NMeF = CN[C@@H](Cc1ccccc1)C(=O)O
One number for each entry, in nM.

These recorded examples may help you get a feel for the data.
Y[dA]G[NMeF]S(β‑D‑xyloside)-NH2 (N-terminus assumed; SMILES C[C@@H](NC(=O)[C@@H](N)Cc1ccc(O)cc1)C(=O)NCC(=O)N(C)[C@@H](Cc1ccccc1)C(=O)N[C@@H](CO[C@@H]1OC[C@@H](O)[C@H](O)[C@H]1O)C(N)=O, Glycopeptide; also called glycopeptide 3) [DAMGO analog compound (3), C-terminal L-serine amide beta-D-xyloside]	160
YAGFS (HELM PEPTIDE1{Y.[dA].G.[meF].S.[am]}$$$$V2.0; N-terminus assumed; SMILES C[C@@H](NC(=O)[C@@H](N)Cc1ccc(O)cc1)C(=O)NCC(=O)N(C)[C@@H](Cc1ccccc1)C(=O)N[C@@H](CO)C(N)=O, Made by Fmoc synthesis on Rink amide resin; also called peptide 2) [DAMGO analog compound (2), C-terminal L-serine amide]	190
Y[dA]G[NMeF]S(βGlc)-NH2 (N-terminus assumed; SMILES C[C@@H](NC(=O)[C@@H](N)Cc1ccc(O)cc1)C(=O)NCC(=O)N(C)[C@@H](Cc1ccccc1)C(=O)N[C@@H](CO[C@@H]1O[C@H](CO)[C@@H](O)[C@H](O)[C@H]1O)C(N)=O, Glycopeptide; also called glycopeptide 4) [DAMGO analog compound (4), C-terminal L-serine amide beta-D-glucoside]	170

Proceed to the following item.
## Task Quick check: Ki of Y[dA]G[NMeF]S(β‑lactoside)-NH2 (N-terminus assumed; SMILES C[C@@H](NC(=O)[C@@H](N)Cc1ccc(O)cc1)C(=O)NCC(=O)N(C)[C@@H](Cc1ccccc1)C(=O)N[C@@H](CO[C@@H]1O[C@H](CO)[C@@H](O[C@@H]2O[C@H](CO)[C@H](O)[C@H](O)[C@H]2O)[C@H](O)[C@H]1O)C(N)=O, Glycopeptide; also called glycopeptide 5) [DAMGO analog compound (5), C-terminal L-serine amide beta-lactoside] ?
## Result 350
